Documented pIC50 across a set of compounds
- tested on: hSK2 (Homo sapiens, UniProt Q9H2S1)
- assay text: Assay for compound activity towards hSK channels (86Rb+ efflux)
- test parameters: 86Rb+ efflux stimulated with calcium ionophore; drug 0.01 to 30 μM in EBSS; read-out: hSK2 Inhibitory Activity
pIC50: −log10 of the molar value.
readout: pIC50

| input smiles | value reported |
| --- | --- |
| COc1cnc(-c2ccccn2)nc1NNc1ccccn1 | 4.52 to 5.30 |
| Cc1ccnc(Nc2nccc(-c3ccccn3)n2)c1 | > 7.00 |
| COc1cnc(-c2ccccn2)nc1Nc1ccccn1 | 6.00 to 7.00 |
| COc1ccc(Nc2nc(-c3ccccn3)ncc2OC)nc1 | > 7.00 |
| c1ccc(Nc2cc(-c3ccccn3)nc(-c3ccccn3)n2)nc1 | 4.52 to 5.30 |
| c1ccc(-c2ccc(Nc3nccc(-c4ccccn4)n3)nc2)cc1 | 6.00 to 7.00 |
| c1ccc(Nc2nc(-c3ccccn3)nc3ccccc23)nc1 | 6.00 to 7.00 |
| COc1cnc(-c2ccccn2)nc1Nc1ccc([N+](=O)[O-])cn1 | 4.52 to 5.30 |
| Cc1cc(Nc2ccccn2)nc(-c2ccccn2)n1 | 4.52 to 5.30 |
| COc1cnc(-c2ccccn2)nc1Nc1ccc(N2CCCC2)cn1 | > 7.00 |
| c1ccc(Nc2nc(-c3ccccn3)c3ccccc3n2)nc1 | 4.52 to 5.30 |
| c1ccc(Nc2nccc(-c3ccccn3)n2)nc1 | > 7.00 |
| Cc1cccc(-c2ccnc(Nc3ccccn3)n2)n1 | 5.30 to 6.00 |
| COc1cnc(-c2ccccn2)nc1Nc1ccc(-c2cccc(F)c2)cn1 | 6.00 to 7.00 |
| Cc1nc(-c2ccccn2)nc(Nc2ccc(C(F)(F)F)cn2)c1Cl | 4.52 to 5.30 |
| COc1cnc(-c2ccccn2)nc1Nc1ccc(Br)cn1 | 4.52 to 5.30 |
| COc1cnc(-c2ccccn2)nc1Nc1ccc(-c2ccc(C)o2)cn1 | 6.00 to 7.00 |
| COc1cnc(-c2ccccn2)nc1Nc1ccc(C(F)(F)F)cn1 | 4.52 to 5.30 |
